Listing: pIC50 of selected compounds
system: TCF/LEF luciferase Reporter in DLD1 cells; assay: TCF reporter assay (DLD1 TCF/LEF luciferase reporter, Bright-Glo); assay type: cell-based; conditions: read-out: DLD1 4% Abs IC50; DLD1 reporter, 4%, absolute IC50
pIC50: −log10 of the molar value.
Measurement Label: pIC50

{"columns": ["Compound", "Readout Relation", "Meas Value"],
 "data": [
  ["CC(=O)N1CCC[C@]12CC=CCCCC1(CCCC=CCCCOC(=O)N3CC[C@@](C(=O)N[C@@H](Cc4ccsc4)C(=O)N[C@@H](Cc4csc5ccccc45)C(=O)N[C@H](C(N)=O)[C@@H](C)O)(C3)NC(=O)[C@H](CC(N)=O)NC(=O)[C@H](Cc3ccccc3)NC(=O)[C@H](C)NC(=O)C(C)(C)NC(=O)[C@H]([C@@H](C)O)NC(=O)[C@H](CC(N)=O)NC1=O)NC(=O)[C@H](CC(C)(C)C)NC(=O)[C@H](CC(=O)O)NC2=O (stereo partly drawn) [I-2416]", "<", 4.70],
  ["CC(=O)N1CCC[C@]12CC=CCCCC1(CCCC=CCCCOC(=O)N3CC[C@@](C(=O)N[C@@H](Cc4ccccc4C(F)(F)F)C(=O)N[C@@H](Cc4csc5ccccc45)C(=O)N[C@@H](CCC(N)=O)C(=O)N[C@H](C(=O)N[C@@H](C)C(N)=O)C(C)C)(C3)NC(=O)[C@H](CC(C)C)NC(=O)[C@H](Cc3ccccc3)NC(=O)[C@H](C)NC(=O)[C@H](C)NC(=O)[C@H](Cc3cccc(C(=O)O)c3)NC(=O)[C@H](CC(=O)O)NC1=O)NC(=O)[C@H](CC(C)(C)C)NC(=O)[C@H](CC(=O)O)NC2=O (stereo partly drawn) [I-2401]", "=", 6.10],
  ["CC(=O)N1CCC[C@]12CC=CCCCC1(CCCC=CCCCOC(=O)N3CC[C@@](C(=O)N[C@@H](Cc4ccccc4Cl)C(=O)N[C@@H](Cc4csc5ccccc45)C(=O)N[C@@H](C)CO)(C3)NC(=O)[C@H]([C@@H](C)O)NC(=O)[C@H](Cc3ccccc3)NC(=O)[C@H](C)NC(=O)[C@H](C)NC(=O)[C@H](CC(=O)O)NC(=O)[C@H](CC(=O)O)NC1=O)NC(=O)[C@H](CC(C)(C)C)NC(=O)[C@H](CC(=O)O)NC2=O (stereo partly drawn) [I-1246]", "=", 4.79]
]}
